experiment: Selectivity ratio of inhibition of GSK3beta (unknown origin) to inhibition of PKC theta (unknown origin) at 1 mM ATP concentration
Property Measured: Selectivity ratio
Would you mind answering with just the numeric figure?

For record CC1CCN2c3nc(ccc3C(=O)NC2(C)C)-n2c(=O)[nH]c3nccc(c32)O1 (stereo not given) the listed Selectivity ratio is 17900

For record CC1CCCOc2nc(ccc2C(N)=O)-n2c(=O)[nH]c3nccc(c32)O1 (stereo not given) the listed Selectivity ratio is 66

For record CC1CCN(C)c2c(F)cnc3cc(F)c(nc23)-n2c(=O)[nH]c3nccc(c32)O1 (stereo not given) the listed Selectivity ratio is 187

For record CC1CCC(C)n2ccc(=O)c3ccc(nc32)-n2c(=O)[nH]c3nccc(c32)O1 (stereo not given) the listed Selectivity ratio is 4540
